system: Enterococcus; test: Antibacterial activity against Enterococcus sp. J 14365/08 incubated for 24 hrs under dark condition by microdilution broth assay; details: J 14365/08, 24 h
readout: MIC95 (µM)

INSERT INTO results (molecular_string, assayed_target, relational_operator, observed_result) VALUES
  ('O=C(CN1C(=O)CSC1=S)Oc1ccccc1', 'Enterococcus', '=', 125),
  ('O=C(CN1C(=O)/C(=C/c2ccccn2)SC1=S)Nc1ccc(Cl)cc1', 'Enterococcus', '=', 125),
  ('O=C(O)CN1C(=O)/C(=C/c2cc(Cl)ccc2O)SC1=S', 'Enterococcus', '=', 125),
  ('O=C(CN1C(=O)CSC1=S)Nc1ccc([N+](=O)[O-])cc1', 'Enterococcus', '=', 250),
  ('O=C(CN1C(=O)CSC1=S)Nc1ccccc1', 'Enterococcus', '=', 500),
  ('O=C(CN1C(=O)CSC1=S)Nc1ccc(Cl)cc1', 'Enterococcus', '=', 500),
  ('O=C(CN1C(=O)/C(=C/c2cc(Cl)ccc2O)SC1=S)Nc1ccc(Cl)cc1', 'Enterococcus', '>', 250),
  ('COc1ccc(OC(=O)CN2C(=O)CSC2=S)cc1', 'Enterococcus', '=', 500),
  ('O=C(O)CN1C(=O)/C(=C/c2cc(Br)ccc2O)SC1=S', 'Enterococcus', '=', 500),
  ('O=C(O)CN1C(=O)/C(=C/c2ccc(O)cc2)SC1=S', 'Enterococcus', '>', 500),
  ('CC(=O)Oc1ccccc1/C=C1\SC(=S)N(CC(=O)O)C1=O', 'Enterococcus', '=', 62.5),
  ('O=C(CN1C(=O)CSC1=S)Oc1ccc(C(F)(F)F)cc1', 'Enterococcus', '=', 15.6),
  ('O=C(CN1C(=O)/C(=C/c2cc(Br)ccc2O)SC1=S)Nc1ccc(Cl)cc1', 'Enterococcus', '=', 500),
  ('O=C(CN1C(=O)CSC1=S)Oc1ccc([N+](=O)[O-])cc1', 'Enterococcus', '=', 500),
  ('O=C(O)CN1C(=O)/C(=C/c2cccc(O)c2)SC1=S', 'Enterococcus', '=', 500),
  ('O=C(O)CN1C(=O)/C(=C/c2ccccc2O)SC1=S', 'Enterococcus', '=', 125);
